FYI, the data here is from PubChem BioAssay (NCI).

tested on: KM12 colon; assay: NCI tumour cell line growth inhibition, 48 h; in the data active = GI50 below about 0.43 µM; inactive = the rest
Outcomes: 1 for active, 0 for inactive

- Compound: "C#Cc1cnc(=O)n(C2CC(O)C(CO)O2)c1 (stereo not drawn)"
  Measurement target: "KM12 colon"
  Discrete label: 0
- Compound: "CN=C(N)N/N=C(\\c1ccccc1)c1ccc(Br)cc1"
  Measurement target: "KM12 colon"
  Discrete label: 1
- Compound: "O=C(NNc1nc2c(F)cccc2n2cccc12)c1cnccn1"
  Measurement target: "KM12 colon"
  Discrete label: 0
- Compound: "NC(CO)Cc1cnc[nH]1 (stereo not drawn)"
  Measurement target: "KM12 colon"
  Discrete label: 0
- Compound: "CN1CCN(CC#Cc2cccc(C(=O)c3cnn(-c4ccc(F)cc4)c3N)c2)CC1"
  Measurement target: "KM12 colon"
  Discrete label: 0
- Compound: "CC(=O)OCC1OC(O[C@@H]2C[C@H]3C(C)(C)[C@H](OC(C)=O)CC[C@]3(C)[C@H]3CCC4=C([C@@H](C)C[C@@H](O)[C@H](O)C(C)(C)O)CC[C@@]4(C)[C@@]32C)C(O)C(O)C1O (stereo partly drawn)"
  Measurement target: "KM12 colon"
  Discrete label: 0
- Compound: "COc1ccc(C(=S)N2CCN(c3cccc(Cl)c3)CC2)cc1"
  Measurement target: "KM12 colon"
  Discrete label: 0
- Compound: "COc1cc2ncn(-c3cc(OCc4ccccc4Cl)c(C(N)=O)s3)c2cc1OC"
  Measurement target: "KM12 colon"
  Discrete label: 1
